Readings of IC50 for the listed binders
assay_target: T1, human IL-11Rα on transfected cells (human, UniProt Q14626 23-422)
T1 sequence: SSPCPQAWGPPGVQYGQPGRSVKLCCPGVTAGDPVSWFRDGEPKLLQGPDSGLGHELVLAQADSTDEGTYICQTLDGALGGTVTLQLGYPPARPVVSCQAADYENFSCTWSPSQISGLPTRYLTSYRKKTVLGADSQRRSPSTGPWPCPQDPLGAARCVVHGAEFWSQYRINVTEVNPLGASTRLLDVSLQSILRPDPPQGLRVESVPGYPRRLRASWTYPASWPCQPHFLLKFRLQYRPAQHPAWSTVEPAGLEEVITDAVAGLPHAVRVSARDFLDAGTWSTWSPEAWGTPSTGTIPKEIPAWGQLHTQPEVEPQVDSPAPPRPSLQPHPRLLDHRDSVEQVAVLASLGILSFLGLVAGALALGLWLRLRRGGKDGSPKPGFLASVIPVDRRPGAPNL
measurement_protocol: cell-based or functional assay
Give just the numeric value; µg/mL need not be written.

[[record]]
binder = "hu8E2-TS-307 (antibody, V domains shown) VH: EVQLLESGGGLVQPGGSLRLSCAASGFTFSWYSMTWVRQAPGKGLEWVSSIVPSGGHTQYADSVKGRFTISRDNSKNTLYLQMNSLRAEDTAVYYCAKGPGWGSFDLWGRGTLVTVSS VL: DIQMTQSPSSLSASVGDRVTITCQASQDVSMYVEWYQQKPGKAPKLLIYDASNLQTGVPSRFSGSGSGTDFTFTISSLQPEDIATYYCQQYDNLSPTFGPGTKVDIK"
test_readout = "IC50"
observed_value = 0.25


Field: next binder
Return reported IC50; argument: hu8E2-TS-57 (antibody, V domains shown) VH: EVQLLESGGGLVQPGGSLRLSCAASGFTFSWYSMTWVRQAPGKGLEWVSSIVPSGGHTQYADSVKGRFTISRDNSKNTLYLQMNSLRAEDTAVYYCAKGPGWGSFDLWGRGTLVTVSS VL: DIQMTQSPSSLSASVGDRVTITCQASQDINNYLNWYQQKPGKAPKLLIYDASNLQTGVPSRFSGSGSGTDFTFTISSLQPEDIATYYCQQYETQMPLFGPGTKVDIK
0.25
